Tested on: MS2 coat protein
Experiment: apparent KD of MS2 coat protein; designed switch direction (-1 OFF switch, 1 ON switch): -1; higher = weaker reporter binding
Details: Eterna round: R95; input ligand: microRNA oligo, concentration not stated
PROPERTY: apparent KD of MS2 coat protein (µM)
Output spec: scalar in µM, unitless text.

Illustrative cases are given below, each with its answer.
INSERT INTO results (ordered_residues, property, unit_name, measured) VALUES
  ('UGCAUGCUAGGAUAUACGGGACAUUAGGGUUCGUCGUGUGGACAUGAGGAUCACCCAUGUAGAAGGAGCGUGCU [Mod3 of JL-ex2-2.15 mat747 mod] (puzzle: Exclusion 2)', 'apparent KD of MS2 coat protein', 'µM', 0.0782),
  ('ACAUGGAAGCAGGAUAUGCUUGUAUAAUUGUUUGCAGAAGGGCUAACAUGAGGAUCACCCAUGUAAGAGGUCUA [JR_E6_Sub061] (puzzle: Exclusion 6)', 'apparent KD of MS2 coat protein', 'µM', 0.0159),
  ('UUUAAUUUUUUUUUUUUACAAGCUUUUUGCUCGUCUUAUACAUGAGGAUCACCCAUGUGGGUGAAAGGUAAAUUAUC [JMF 64] (puzzle: Sensor v3, turn-off variant 2)', 'apparent KD of MS2 coat protein', 'µM', 0.021);

Answer with apparent KD of MS2 coat protein of GACCGGACGUGGUCAGGUAACAUGAGGAUCACCCAUGUAGGUCUAGGAACAAGCUUUUUGAAAGCUCGUCUUAUAAA [JR_SV3TOV1_Sub058] (puzzle: Sensor v3, turn-off variant 1) measured for MS2 coat protein.
0.0336

Answer with apparent KD of MS2 coat protein of AAAUACAAGCAAAGAUUCUACAUGAGGAUCACCCAUGUGCUCGUCUUAUAAAGUACUAUCACGAAAGUGAUAGUACA [Sensor 3, v1 - 33] (puzzle: Sensor v3, turn-off variant 1) measured for MS2 coat protein.
0.161

Answer with apparent KD of MS2 coat protein of UCGUGGUUACGCUGCAGUUGCCUGAGCGGAGGCUCUGUGACAUGAGGAUCACCCAUGUAGCUUUUUGCUCAUCUUAA [JR_SV3TOV2_Sub040] (puzzle: Sensor v3, turn-off variant 2) measured for MS2 coat protein.
0.0399

Answer with apparent KD of MS2 coat protein of GGUUGGCGAGGAUAUACAUGAGGAUCACCCAUGUGAGAGAAGAAAGUGAGGAAGAAAAGUAGAAGGCGCUGACG [salish99_ex3_r3_004] (puzzle: Exclusion 3) measured for MS2 coat protein.
0.059
